Source of measurements: PubChem BioAssay AID449762

Recorded inhibition by entry
# test-protocol: M. tuberculosis growth inhibition, HTS (AID 449762);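 note: bacterial growth assessed after seven days of incubation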
# condition-details: M. tuberculosis H37Rv growth inhibition, 7H9 media; at 25 µM; active compounds read high
The whole screen tested about 330,000 compounds, of which about 1,900 (0.58%) were called active. About 4% were inconclusive and are not listed. These entries were drawn from the full list. Entries with a potency or affinity are not part of this list.
The figure you give is taken to be in %; do not add the unit.

Use the examples below as a reference point.
* Brc1ccc2[nH]cc(/C=N/N3CCCCC3)c2c1 | -3.65
* COc1cc(/C=N\Nc2nncn2N)ccc1OC(C)=O | -2.67
* CCCOc1ccc(-c2cn3ccccc3n2)cc1[N+](=O)[O-] | 2.24
* Cc1cc(C(=O)NNc2c(Cl)cccc2Cl)n(C(C)(C)C)n1 | -6.53
* Cc1nnc(SCc2c(Cl)cccc2Cl)s1 | 7.37
* O=C(CSc1nc(-c2ccco2)cc(C(F)(F)F)n1)NC1CCCC1 | -5.38
* CC(Sc1nnc(-c2cccnc2)n1N)C(=O)N1CCOCC1 (stereo not given) | -0.03
* CC(=O)Nc1ccc(SC(C)C(=O)NC(N)=O)cc1 (stereo not given) | -6.23
* CC(C)[C@@]1(c2ccc(Cl)cc2)ON(c2ccccc2C(F)(F)F)C1=O | -3.69
* Nc1nnnn1/N=C/c1ccccc1 | -0.26

[Q] Requested field: inhibition. Item: CSc1ccccc1OCc1cc(C(=O)N2CCSCC2)no1
[A] 4.18

[Q] What does the record list as inhibition for CC1CCc2c(sc3ncnc(NCCN4CCOCC4)c23)C1 (stereo not given) ?
[A] 1.22

[Q] Query (compound): COc1cccc(N(C(=O)Cn2nnc(-c3ccc(C)cc3)n2)C(C(=O)NC(C)(C)C)c2c[nH]c3ccccc23)c1 (stereo not given) ; field requested: inhibition
[A] -12.2
